# reported human MASP1 IC50; entries follow
# assayed-target: T1, Recombinant human MASP1 enzyme (fragment corresponding to amino acids 297-699, C-terminal His Tag) (human, UniProt P48740 297-699)
# T1 sequence: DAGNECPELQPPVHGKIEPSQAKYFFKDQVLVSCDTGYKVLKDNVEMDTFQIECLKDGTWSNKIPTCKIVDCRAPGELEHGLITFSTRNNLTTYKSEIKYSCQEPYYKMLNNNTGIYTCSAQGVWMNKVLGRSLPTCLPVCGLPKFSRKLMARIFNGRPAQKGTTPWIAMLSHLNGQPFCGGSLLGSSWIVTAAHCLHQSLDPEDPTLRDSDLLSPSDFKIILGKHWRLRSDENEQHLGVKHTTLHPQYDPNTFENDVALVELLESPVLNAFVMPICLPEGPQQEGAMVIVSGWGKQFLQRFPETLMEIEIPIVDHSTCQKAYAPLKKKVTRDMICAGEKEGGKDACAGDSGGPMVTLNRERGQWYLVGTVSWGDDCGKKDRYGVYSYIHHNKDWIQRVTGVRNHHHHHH
# test-method-notes: cell-based or functional assay
Bridge positions count the residues as written; N and C are the ends. Square brackets hold non-standard residues; d marks the D form. Ends that are not written are not given here. * marks the point of attachment. Piperidin‑4‑ylacetic acid = O=C(CC1CCNCC1)*; tBuAla = CC(C)(C)C[C@H](N)C(=O)O; Chg = N[C@H](C(=O)O)C1CCCCC1; NMeC = CN[C@@H](CS)C(=O)O; Abu = CC[C@H](N)C(=O)O

binder	human MASP1 IC50 / nM
[Abu]ICSRSLPP[Chg]CIPD-NH2 (disulfide 3-11; N-terminus assumed; SMILES CC[C@H](N)C(=O)N[C@H](C(=O)N[C@H]1CSSC[C@@H](C(=O)N[C@H](C(=O)N2CCC[C@H]2C(=O)N[C@@H](CC(=O)O)C(N)=O)[C@@H](C)CC)NC(=O)[C@H](C2CCCCC2)NC(=O)[C@@H]2CCCN2C(=O)[C@@H]2CCCN2C(=O)[C@H](CC(C)C)NC(=O)[C@H](CO)NC(=O)[C@H](CCCNC(=N)N)NC(=O)[C@H](CO)NC1=O)[C@@H](C)CC) [(Abu)-IC+SRSLPP-(Chg)-C+IPD-NH2]	4.25
{Piperidin‑4‑ylacetic acid}-ICSRS[tBuAla]PPI[NMeC]I-NH2 (disulfide 2-10; SMILES CC[C@H](C)[C@H](NC(=O)[C@@H]1CSSC[C@H](NC(=O)[C@@H](NC(=O)CC2CCNCC2)[C@@H](C)CC)C(=O)N[C@@H](CO)C(=O)N[C@@H](CCCNC(=N)N)C(=O)N[C@@H](CO)C(=O)N[C@@H](CC(C)(C)C)C(=O)N2CCC[C@H]2C(=O)N2CCC[C@H]2C(=O)N[C@@H]([C@@H](C)CC)C(=O)N1C)C(N)=O) [(Piperidin-4-ylacetic acid)-IC+SRS-((tBu)A)-PPI-((N-Me)C)+I-NH2]	10
